TARGET DESC: M.tb PGDH G316, 317V (Mycobacterium tuberculosis, UniProt P9WNX3, G315V/G316V)
Assay type: biochemical
PARAMETER MEASURED: Ki (µM)
Numbers only, in µM.

Item: O=C(O)C(=O)COP(=O)(O)O [HPAP, hydroxypyruvic acid phosphate] | Ki: 380

###

TARGET DESC: M.tb PGDH N481A (Mycobacterium tuberculosis, UniProt P9WNX3, N480A)
PARAMETER MEASURED: pKi
Give bare numbers, as −log10 of the molar value.

// compound O=C(O)C(=O)COP(=O)(O)O [HPAP, hydroxypyruvic acid phosphate] , assay M.tb PGDH N481A (Mycobacterium tuberculosis, UniProt P9WNX3, N480A), pKi value: 2.63

# credit: paper PMC2551328
